# TGI annotations
Test system: K-562 leukemia
assay.overview: NCI tumour cell line growth inhibition, 48 h

Worked cases, TGI given:
Query :: Find the measured TGI: item N#CC1(N2CCCC2)CCC2(CC1)OCCO2 , target or system K-562 leukemia.
Result :: > 100 µM

Query :: Next up: CCC[CH2][Sn]1([CH2]CCC)[O]CC[S]1
Result :: 1.28 µM

Query :: One more compound: COc1ccc(C[C@]23CCC(=O)N2CCc2cc(OC)c(O)cc23)cc1O
Result :: > 100 µM

Query :: Same question for O=c1oc2ccc(Cl)cc2c(=O)n1-c1ccc(F)cc1F please.
Result :: > 100 µM

Query :: Likewise for COc1ccc(CNCCCN2C(=O)c3ccc4c5c(ccc(c35)C2=O)C(=O)N(CCCNCc2ccc(OC)c(OC)c2OC)C4=O)c(OC)c1OC ?
Result :: 0.515 µM

Query :: Another: O=C1OC(c2ccc(Cl)cc2)=N/C1=C\c1ccccc1
Result :: > 100 µM

---
Query :: Lab request: please report TGI under test system K-562 leukemia for COc1cccc(C=O)c1[O-].COc1cccc(C=O)c1[O-].[Zn+2]
Result :: > 100 µM

Query :: Try the compound O=C1NC(=NCc2ccc(F)cc2)N/C1=C\c1ccccc1Cl
Result :: > 100 µM

Query :: Another compound: COc1ccc(N/N=C/C2=CC(C)(C)C(C#N)(C#N)C(O)=C2C#N)cc1
Result :: > 100 µM

Query :: Likewise for CCOC(=O)[C@@H](NC(=O)OC(C)(C)C)[C@@H](O)C(=O)OCC ?
Result :: > 100 µM

Query :: Then CCCCc1nc(C)oc1C(C)C ?
Result :: > 100 µM

###

Tested on: SK-MEL-28 melanoma
assay.overview: NCI tumour cell line growth inhibition, 48 h
outcome.measure: TGI

Query :: What TGI value was documented for this compound, COc1ccc(-c2oc3c(OC)c(OC)c(OC)c(O)c3c(=O)c2OC)cc1O ?
Result :: > 100 µM

Query :: Same read-out for S=C1SCN(Cc2ccccc2)CN1Cc1ccccc1 ?
Result :: 17.9 µM

Query :: One more compound: COc1ccc(C[C@]23CCC(=O)N2CCc2cc(OC)c(O)cc23)cc1O
Result :: > 100 µM

Query :: Also check CCN(CC)CCn1c(=O)c2cc(OC)c(OC)cc2c2ccc3cc4c(cc3c21)OCO4
Result :: 24.8 µM

Query :: Please do the same for Cc1nc(-n2nc(-c3ccccc3)cc2-c2ccccc2)sc1C(=O)/C=C/c1ccc([N+](=O)[O-])cc1 as well.
Result :: > 100 µM

Query :: Another compound to check: CCOC(=O)[C@@H](NC(=O)OC(C)(C)C)[C@@H](O)C(=O)OCC
Result :: > 100 µM

Query :: Also, N#CC1(C#N)[C@@H]2CCC=C(Sc3ccccc3)[C@@H]21 please.
Result :: 28.9 µM

Query :: Moving on to N#Cc1sc2c(c1OC(=O)c1ccc(Cl)cc1Cl)c(=O)n(-c1ccccc1)c(=S)n2-c1ccccc1
Result :: > 100 µM

Query :: Continue with O=C(CC1(O)C(=O)Nc2ccc([N+](=O)[O-])cc21)c1ccncc1 (stereo unspecified)
Result :: > 100 µM

Query :: Similarly, Cc1nc2ccccc2c(/C=C/c2ccccc2)c1C(=O)/C=C/c1ccc(C(F)(F)F)cc1 ?
Result :: 3.27 µM

Query :: Follow-up entry: Cc1[nH]c2ccccc2c1C1=NO/C(=N\O)C(c2c(C)[nH]c3ccccc23)C1 (stereo unspecified)
Result :: > 100 µM

Query :: O=C(O)c1ccccc1/C=C1/Cc2ccc3c(c2C1=O)CCC3 ?
Result :: > 100 µM

Query :: Also, OCC(O)COCn1cc(Cn2ncc3c(NCc4ccccc4)ncnc32)nn1 (stereo unspecified) please.
Result :: > 100 µM

Query :: Also CC[C@H]1CCC/C=C/[C@@H]2C[C@H](O)C[C@H]2[C@H](O)/C=C/C(=O)O1 ?
Result :: 0.134 µM

Query :: Please give the result for CC(=O)Nc1ccc(OC(C)=O)cc1 too.
Result :: 48 µM

Query :: Try the compound Oc1ccc(C2Oc3cc(O)cc4c3C2c2cc(O)cc3c2C(c2cc(O)cc5c2C4C(c2ccc(O)cc2)O5)C(c2ccc(O)cc2)O3)cc1 (stereo unspecified)
Result :: 16.9 µM

Query :: Now consider CCOP(=O)(Nc1ccc(-c2ccc(N)cc2)cc1)OCC and answer again.
Result :: > 100 µM
